Test system: Prostatic carcinoma cell
METHOD SUMMARY: Cytotoxicity against human prostate cancer cells after 48 hrs by SRB assay
Type: functional
READOUT NAME: TGI (µM)

{"ENTRY SMILES": "COc1nc2sc(C)cn2c1/C=C1/C(=O)Nc2c1ccc1ccccc21", "READOUT NAME": "TGI", "OBSERVED RESULT": 35.2}
{"ENTRY SMILES": "COc1ccc2c(c1)/C(=C/c1c(-c3ccncc3)nc3sccn13)C(=O)N2C", "READOUT NAME": "TGI", "OBSERVED RESULT": 68.8}
{"ENTRY SMILES": "O=C1Nc2c(ccc3ccccc23)/C1=C\\c1c(-c2cccnc2)nc2sccn12", "READOUT NAME": "TGI", "OBSERVED RESULT": 11.1}
{"ENTRY SMILES": "O=C1Nc2c(ccc3ccccc23)C1=Cc1c(-c2ccncc2)nc2sccn12", "READOUT NAME": "TGI", "OBSERVED RESULT": 55.9}
{"ENTRY SMILES": "COc1ccc2c(c1)/C(=C\\c1c(OC)nc3sc(C)cn13)C(=O)N2", "READOUT NAME": "TGI", "OBSERVED RESULT": 52.8}
{"ENTRY SMILES": "COc1nc2sc(C)cn2c1/C=C1/C(=O)Nc2ccc(O)cc21", "READOUT NAME": "TGI", "OBSERVED RESULT": 96.2}
{"ENTRY SMILES": "COc1nc2sc(C)cn2c1/C=C1/C(=O)Nc2ccccc21", "READOUT NAME": "TGI", "OBSERVED RESULT": 45}
{"ENTRY SMILES": "COc1nc2sc(C)cn2c1C=C1C(=O)N(C)c2ccccc21", "READOUT NAME": "TGI", "OBSERVED RESULT": 66.7}

---

Collected GI50 at 72 h values appear next to each entry.
METHOD SUMMARY: Cytotoxicity against human PHA-stimulated PBL after 72 hrs by MTT assay
Format: cell-based
CONDITION DESCRIPTION: PHA-stimulated peripheral blood lymphocytes (PBL)
READOUT NAME: GI50 at 72 h

{"ENTRY SMILES": "O=C1Nc2c(ccc3ccccc23)/C1=C\\c1c(-c2cccnc2)nc2sccn12", "READOUT NAME": "GI50 at 72 h", "OBSERVED RESULT": "2.5 µM"}
{"ENTRY SMILES": "O=C1Nc2c(ccc3ccccc23)C1=Cc1c(-c2ccncc2)nc2sccn12", "READOUT NAME": "GI50 at 72 h", "OBSERVED RESULT": "5.5 µM"}

---

Test system: Melanoma cell line
METHOD SUMMARY: Cytotoxicity against human melanoma cells after 48 hrs by SRB assay
Assay type: functional
Collected GI50 values appear next to each entry.
READOUT NAME: GI50 (µM)

{"ENTRY SMILES": "O=C1Nc2ccc(O)cc2/C1=C/c1c(-c2ccncc2)nc2sccn12", "EXPERIMENTAL SYSTEM": "Melanoma cell line", "OBSERVED RESULT": 15.8}
{"ENTRY SMILES": "COc1nc2sc(C)cn2c1C=C1C(=O)N(C)c2ccccc21", "EXPERIMENTAL SYSTEM": "Melanoma cell line", "OBSERVED RESULT": 8.08}
{"ENTRY SMILES": "COc1ccc2c(c1)/C(=C\\c1c(OC)nc3sc(C)cn13)C(=O)N2", "EXPERIMENTAL SYSTEM": "Melanoma cell line", "OBSERVED RESULT": 3.46}
{"ENTRY SMILES": "O=C1Nc2c(ccc3ccccc23)C1=Cc1c(-c2ccncc2)nc2sccn12", "EXPERIMENTAL SYSTEM": "Melanoma cell line", "OBSERVED RESULT": 7.16}
{"ENTRY SMILES": "COc1nc2sc(C)cn2c1/C=C1/C(=O)Nc2c1ccc1ccccc21", "EXPERIMENTAL SYSTEM": "Melanoma cell line", "OBSERVED RESULT": 0.52}
{"ENTRY SMILES": "COc1cc2c(c(OC)c1OC)/C(=C\\c1c(OC)nc3sc(C)cn13)C(=O)N2", "EXPERIMENTAL SYSTEM": "Melanoma cell line", "OBSERVED RESULT": 7.86}
{"ENTRY SMILES": "COc1nc2sc(C)cn2c1/C=C1/C(=O)Nc2ccc(O)cc21", "EXPERIMENTAL SYSTEM": "Melanoma cell line", "OBSERVED RESULT": 4.88}
{"ENTRY SMILES": "COc1ccc2c(c1)/C(=C/c1c(-c3ccncc3)nc3sccn13)C(=O)N2C", "EXPERIMENTAL SYSTEM": "Melanoma cell line", "OBSERVED RESULT": 5.97}
{"ENTRY SMILES": "COc1nc2sc(C)cn2c1/C=C1/C(=O)Nc2ccccc21", "EXPERIMENTAL SYSTEM": "Melanoma cell line", "OBSERVED RESULT": 16.2}
{"ENTRY SMILES": "O=C1Nc2ccccc2C1=Cc1c(-c2ccncc2)nc2sccn12", "EXPERIMENTAL SYSTEM": "Melanoma cell line", "OBSERVED RESULT": 3.27}
{"ENTRY SMILES": "O=C1Nc2c(ccc3ccccc23)/C1=C\\c1c(-c2cccnc2)nc2sccn12", "EXPERIMENTAL SYSTEM": "Melanoma cell line", "OBSERVED RESULT": 1.65}
{"ENTRY SMILES": "COc1cc2c(cc1C)NC(=O)/C2=C/c1c(OC)nc2sc(C)cn12", "EXPERIMENTAL SYSTEM": "Melanoma cell line", "OBSERVED RESULT": 31.5}

Data origin: ChEMBL document CHEMBL4316599
